- Assayed System: hS1P2 (Homo sapiens, UniProt O95136)
- Construct: gene S1PR2; receptor stably expressed in CHO-K1 cells
- Sequence (O95136 whole entry): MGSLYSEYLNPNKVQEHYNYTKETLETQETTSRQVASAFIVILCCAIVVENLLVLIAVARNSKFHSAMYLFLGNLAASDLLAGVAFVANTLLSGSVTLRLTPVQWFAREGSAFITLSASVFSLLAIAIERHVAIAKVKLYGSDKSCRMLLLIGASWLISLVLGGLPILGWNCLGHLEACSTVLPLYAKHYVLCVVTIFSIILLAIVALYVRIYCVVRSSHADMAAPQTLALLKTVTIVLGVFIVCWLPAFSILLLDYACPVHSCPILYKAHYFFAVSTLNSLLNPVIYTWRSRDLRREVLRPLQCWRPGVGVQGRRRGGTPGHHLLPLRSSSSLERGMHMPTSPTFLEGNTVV
- Assay Info: […]GTPgammaS binding, CHO-K1 membranes
- Type: biochemical
- Test Parameters: read-out: EC50
Readout Type: EC50

EC50 reported for this compound O=C(O)C[C@H]1CCc2c1[nH]c1ccc(OCc3ccc(C4CCCC4)c(C(F)(F)F)c3)cc21 : > 10 µM

* * *

Exercise: for every item that follows, state its recorded pEC50.
- Assayed System: hS1P5 (Homo sapiens, UniProt Q9H228)
- Construct: receptor stably expressed in CHO-K1 cells
- Sequence (Q9H228 whole entry): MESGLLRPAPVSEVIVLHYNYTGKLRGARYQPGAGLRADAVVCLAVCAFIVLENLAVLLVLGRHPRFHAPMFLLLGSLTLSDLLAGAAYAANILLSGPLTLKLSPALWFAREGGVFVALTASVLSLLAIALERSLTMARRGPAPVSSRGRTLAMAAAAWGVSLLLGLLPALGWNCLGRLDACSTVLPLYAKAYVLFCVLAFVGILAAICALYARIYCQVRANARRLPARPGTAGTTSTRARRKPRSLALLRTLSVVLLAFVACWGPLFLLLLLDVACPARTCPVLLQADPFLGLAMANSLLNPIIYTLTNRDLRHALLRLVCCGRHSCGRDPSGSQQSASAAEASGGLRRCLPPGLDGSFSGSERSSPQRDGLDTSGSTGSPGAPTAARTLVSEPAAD
- Assay Info: […]GTPgammaS binding, CHO-K1 membranes
Answers are plain numbers, as −log10 of the molar value.

Here is how some compounds turned out for pEC50.
CC(C)Oc1ccc(-c2nc(-c3cccc4c3CCC4=O)no2)cc1C#N :: 7.23
O=C(O)C[C@H]1CCc2c1[nH]c1ccc(OCc3ccc(C4CCCC4)c(C(F)(F)F)c3)cc21 :: 7.20

Then this compound:
response.value for CC(C)Oc1ccc(-c2nc(-c3cccc4c3CC[C@@H]4NCCO)no2)cc1C#N (field: pEC50) = 7.54

Data origin: paper PMC11705451
